Cited source for all entries: patent US5563155A

- assayOverview: cytotoxicity, hamster V-79 cells, colony reduction
- Type: cell-based
- conditions: 3 hours treatment, colonies counted after 5 days, read-out: Cytotox (cytotoxicity IC50)
Where a name gives a salt, the structure may show the parent alone.
# note: exactly 100 µg/mL is not below, so it is not satisfied; use satisfied for CC50 at 3 h strictly under it

**Query** For this compound, is CC50 at 3 h lower than 100 µg/mL? C[C@H](N)[C@H]1CCN(c2nc3c(cc2F)c(=O)c(C(=O)O)cn3C2CC2)C1
**Result** satisfied

**Query** For this compound, is CC50 at 3 h lower than 100 µg/mL? CN[C@@H](C)[C@@H]1CCN(c2c(F)cc3c(=O)c(C(=O)O)cn(C4CC4)c3c2OC)C1
**Result** satisfied

**Query** For this compound, is CC50 at 3 h lower than 100 µg/mL? C[C@H]([C@@H]1CCN(c2nc3c(cc2F)c(=O)c(C(=O)O)cn3C2CC2)C1)N(C)C
**Result** not satisfied

**Query** For this compound, is CC50 at 3 h lower than 100 µg/mL? CCN[C@@H](C)[C@@H]1CCN(c2c(F)cc3c(=O)c(C(=O)O)cn(C4CC4)c3c2OC)C1
**Result** not satisfied

**Query** For this compound, is CC50 at 3 h lower than 100 µg/mL? CN[C@H](C)[C@H]1CCN(c2c(F)cc3c(=O)c(C(=O)O)cn(C4CC4)c3c2OC)C1
**Result** not satisfied

**Query** For this compound, is CC50 at 3 h lower than 100 µg/mL? CN[C@@H](C)[C@@H]1CCN(c2c(F)c(N)c3c(=O)c(C(=O)O)cn(C4CC4)c3c2F)C1
**Result** satisfied

**Query** For this compound, is CC50 at 3 h lower than 100 µg/mL? C[C@@H](N)[C@@H]1CCN(c2cc3c(cc2F)c(=O)c(C(=O)O)cn3C2CC2)C1
**Result** not satisfied

**Query** For this compound, is CC50 at 3 h lower than 100 µg/mL? C[C@@H](N)[C@H]1CCN(c2nc3c(cc2F)c(=O)c(C(=O)O)cn3C2CC2)C1
**Result** satisfied

**Query** For this compound, is CC50 at 3 h lower than 100 µg/mL? CN[C@H](C)[C@@H]1CCN(c2nc3c(cc2F)c(=O)c(C(=O)O)cn3C2CC2)C1
**Result** satisfied

**Query** For this compound, is CC50 at 3 h lower than 100 µg/mL? C[C@H](N)[C@@H]1CCN(c2nc3c(cc2F)c(=O)c(C(=O)O)cn3-c2ccc(F)cc2F)C1
**Result** not satisfied

**Query** For this compound, is CC50 at 3 h lower than 100 µg/mL? C[C@@H](N)[C@H]1CCN(c2cc3c(cc2F)c(=O)c(C(=O)O)cn3C2CC2)C1
**Result** not satisfied

**Query** For this compound, is CC50 at 3 h lower than 100 µg/mL? C[C@H](N)[C@@H]1CCN(c2nc3c(cc2F)c(=O)c(C(=O)O)cn3C2CC2)C1 (relative stereo) [reference compound]
**Result** satisfied

**Query** For this compound, is CC50 at 3 h lower than 100 µg/mL? CN[C@@H](C)[C@@H]1CCN(c2nc3c(cc2F)c(=O)c(C(=O)O)cn3-c2ccc(F)cc2F)C1 [Example 64, monohydrochloride]
**Result** not satisfied

**Query** For this compound, is CC50 at 3 h lower than 100 µg/mL? CCN[C@H](C)[C@@H]1CCN(c2c(F)cc3c(=O)c(C(=O)O)cn(C4CC4)c3c2OC)C1
**Result** not satisfied

**Query** For this compound, is CC50 at 3 h lower than 100 µg/mL? C[C@H](N)[C@@H]1CCN(c2cc3c(cc2F)c(=O)c(C(=O)O)cn3C2CC2)C1
**Result** satisfied

**Query** For this compound, is CC50 at 3 h lower than 100 µg/mL? Cc1c(F)c(N2CC[C@@H]([C@H](C)N)C2)cc2c1c(=O)c(C(=O)O)cn2-c1ccc(F)cc1F [Example 65, monohydrochloride]
**Result** satisfied

**Query** For this compound, is CC50 at 3 h lower than 100 µg/mL? CN[C@H](C)[C@@H]1CCN(c2c(F)c(N)c3c(=O)c(C(=O)O)cn(C4CC4)c3c2F)C1
**Result** satisfied
